Field pIC50: reported value for Growth factor receptor-bound protein 2 (Homo sapiens); entries drawn from several documents.
As a rule, pIC50 stands for the negative log10 of the concentration, concentration in M.

structure	pIC50
CC(=O)N[C@@H](Cc1ccc(OP(=O)(O)O)cc1)C(=O)NCCCN1CCCNC1=O	3.76
CC(=O)N[C@H]1CCCCNC(=O)[C@H]2CCCN2C(=O)[C@H](C(C)C)NC(=O)[C@@H](CC(N)=O)NC(=O)[C@H](CC(C)C)NC(=O)[C@@H](Cc2ccc(OP(=O)(O)O)cc2)NC1=O	5.87

query: Name the recorded pIC50 of the compound listed here: NC(=O)C[C@H](NC(=O)C1(NC(=O)[C@H](Cc2ccc(CP(=O)(O)O)cc2)NC(=O)C(=O)O)CCCCC1)C(=O)NCCCc1cccc2ccccc12
result: 7.30

query: Name the recorded pIC50 of the compound listed here: COc1cc2cccc(CCCNC(=O)[C@H](CC(N)=O)NC(=O)C3(NC(=O)[C@H](Cc4ccc(CP(=O)(O)O)cc4)NC(C)=O)CCCCC3)c2cc1OC
result: 7.07

query: Name the recorded pIC50 of the compound listed here: O=C(Cc1ccccc1)N[C@@H](Cc1ccc(OP(=O)(O)O)cc1)C(=O)N[C@@H](CO)c1nc(Cc2ccc(Cl)c(Cl)c2)no1
result: 3.58

* * *

Field IC50: reported value for UniProt:P62993; entries drawn from several documents.
Express it in µM; write the number only.

Recorded results for 2 compounds are shown here.
>>> print(df.to_string())
                                  structure  value_unit  quantitative_readout
0  CC(=O)N[C@@H](Cc1ccc(OP(=O)(O)O)cc1)C(=O)NC1(CCN2CCCNC2=O)CCCCC1          µM                    56
1  O=C(Cc1ccccc1)N[C@@H](Cc1ccc(OP(=O)(O)O)cc1)C(=O)N[C@@H](CO)c1nc(Cc2ccc3ccccc3c2)no1          µM                   368

The record that follows has no IC50 shown yet.
query: State measured IC50 of the compound CC(=O)N[C@@H](Cc1ccc(C(F)(C(=O)O)C(=O)O)cc1)C(=O)NC1(C(=O)N[C@@H](CC(N)=O)C(=O)NCCCc2cccc3ccccc23)CCCCC1 with UniProt:P62993.
result: 0.68

* * *

Field IC50: reported value for Growth factor receptor-bound protein 2 (Homo sapiens); entries drawn from several documents.
Express it in nM; write the number only.

Recorded results for 10 molecules are shown here.
molecule	IC50 [nM]
CSCC[C@H]1NC(=O)CNC(=O)[C@@H](C(C)C)NC(=O)[C@@H](CC(N)=O)NC(=O)[C@@H](CCC(=O)O)NC(=O)[C@@H](Cc2ccc(O)cc2)NC(=O)[C@@H](CC(C)C)NC(=O)[C@@H](C)NC(=O)CSC[C@H](C(N)=O)NC(=O)[C@@H](Cc2ccc(OP(=O)(O)O)cc2)NC1=O	23
CC(=O)N[C@@H](Cc1ccc(OP(=O)(O)O)cc1)C(=O)N[C@@H](CCc1ccccc1)c1nc(Cc2ccc(Cl)c(Cl)c2)no1	340000
Cc1ccc2c(ccn2C[C@@H]2C/C=C/[C@H](c3ccc(NC(=O)C(=O)O)cc3)[C@H](CC(=O)O)C(=O)NC3(CCCCC3)C(=O)N[C@@H](CC(N)=O)C(=O)NC2)c1	8.8
CCC(C)/C=C(C)/C=C/c1cc2c(cn1)=C(OC)[C@@](C)(OC(C)=O)C(=O)C=2Cl (stereo partly specified)	5300
CC(=O)N[C@@H](Cc1ccc(CP(=O)(O)O)cc1)C(=O)NC1(C(=O)N[C@@H](CC(N)=O)C(=O)NCCCc2cccc3ccccc23)CCCCC1	55
Cc1ccc2c(ccn2C[C@@H]2C/C=C/[C@H](c3ccc(CP(C)(=O)O)cc3)[C@H](CC(=O)O)C(=O)NC3(CCCCC3)C(=O)N[C@@H](CC(N)=O)C(=O)NC2)c1	6.3
NC(=O)C[C@@H]1NC(=O)C2(CCCCC2)NC(=O)C[C@@H](c2ccc(CP(=O)(O)O)cc2)/C=C/C[C@@H](Cc2cccc3ccccc23)CNC1=O	350
CSCC[C@H]1NC(=O)CNC(=O)[C@@H](C(C)C)NC(=O)[C@@H](CC(N)=O)NC(=O)[C@@H](CCC(=O)O)NC(=O)[C@@H](Cc2ccc(O)cc2)NC(=O)[C@@H](CC(C)C)NC(=O)[C@@H](CCC(=O)O)NC(=O)CSC[C@H](C(N)=O)NC(=O)[C@@H](Cc2ccc(O)cc2)NC1=O	20000
CSCC[C@H]1NC(=O)CNC(=O)[C@@H](C(C)C)NC(=O)[C@@H](CC(N)=O)NC(=O)[C@@H](CCC(=O)O)NC(=O)[C@@H](Cc2ccc(O)cc2)NC(=O)[C@@H](CC(C)C)NC(=O)[C@@H](Cc2ccc(OC(C(=O)O)C(=O)O)cc2)NC(=O)CSC[C@H](C(N)=O)NC(=O)[C@@H](Cc2ccc(O)cc2)NC1=O	64500
Cc1ccc2c(ccn2CCCNC(=O)[C@H](CC(N)=O)NC(=O)C2(NC(=O)[C@H](Cc3ccc(CP(=O)(O)O)cc3)NC(=O)C(=O)O)CCCCC2)c1	2

query: State measured IC50 of the molecule NC(=O)C[C@H](NC(=O)C1(NC(=O)[C@H](Cc2ccc(OC(C(=O)O)C(=O)O)cc2)NC(=O)C(=O)O)CCCCC1)C(=O)NCCCc1cccc2ccccc12 with Growth factor receptor-bound protein 2 (Homo sapiens).
result: 1100

query: State measured IC50 of the molecule CC(=O)N[C@@H](Cc1ccc(OP(=O)(O)O)cc1)C(=O)N[C@H](c1cccc(NC(N)=O)c1)C(C)C with Growth factor receptor-bound protein 2 (Homo sapiens).
result: 6190

query: State measured IC50 of the molecule CC(=O)N[C@@H](Cc1ccc(CC(=O)O)cc1)C(=O)NC1(C(=O)N[C@@H](CC(N)=O)C(=O)NCCCc2cccc3ccccc23)CCCCC1 with Growth factor receptor-bound protein 2 (Homo sapiens).
result: 6400
